- ASSAY INFO: Toxicity liver stage against HepG2, at 10uM
- Assay type: cell-based
- Parameters: test concentration 10 uM, cell line HepG2-A16-CD81EGFP
- MEASUREMENT PARAMETERS: human, HepG2-A16-CD81EGFP cells; read-out: INHIBITION
As shown below, each of these molecules has a reported cytotoxicity at 10 µM value.
All answers are understood in %, so give the number only.

Any idea what its cytotoxicity at 10 µM is? The molecule is Cc1nc(N2CCCC2)nc2c1CCN(C(=O)CC1CCCC1)CC2
0.457

Sample COCC(=O)N1CCOC(c2cccc(-c3cncnc3)n2)C1 (configuration not stated) — what was its cytotoxicity at 10 µM?
0.109

# cytotoxicity at 10 µM lookup, item Cc1ccc(CN2CCC[C@@H]3CN(C(=O)c4ccco4)C[C@@H]32)o1
8.83

Consider the molecule COc1cccc2c1OCC(C(=O)N1CCN(C3CCCC3)C(=O)C1)C2 (configuration not stated) and give its measured cytotoxicity at 10 µM.
-4.9

Look up cytotoxicity at 10 µM for this molecule: CC(=O)N1CCN(CC2CCOc3ccccc3C2)CC1 (configuration not stated)
7.68

Consider the molecule shown here: N#Cc1ccc(OC2CCN(C(=O)c3ccc(Br)o3)CC2)nc1 What is its recorded cytotoxicity at 10 µM?
11.2

State the recorded cytotoxicity at 10 µM for this entry: O=C1CC(c2ccccc2)c2sc(C(=O)O)c(-c3ccccc3)c2N1 (configuration not stated)
-2.31

###

Reported cytotoxicity at 10 µM values for the following molecules.
- ASSAY INFO: Toxicity liver stage against HepG2, at 10uM
- Format: cell-based
- Set-up: test concentration 10 uM, cell line HepG2-A16-CD81EGFP
- MEASUREMENT PARAMETERS: human, HepG2-A16-CD81EGFP cells; read-out: INHIBITION
Report only the number, with the unit % understood.

Study these solved cases before continuing.
MOLECULE: COCC(NC(=O)c1cnc(-c2ccncc2)nc1)c1ccnn1C (stereo not drawn)
UNIT NAME: %
cytotoxicity at 10 µM: -13.1
//
MOLECULE: Cc1cc(C(=O)NC2CCc3c(ccc(=O)n3CC(C)C)C2)no1 (stereo not drawn)
UNIT NAME: %
cytotoxicity at 10 µM: 7.15
//
MOLECULE: COCCn1ccnc1C1CCN(C(=O)c2cccc(COC)n2)CC1
UNIT NAME: %
cytotoxicity at 10 µM: 1.62
//
MOLECULE: O=C(N1CCCC1)N1CCN(CC2CC2)c2ncccc2C1
UNIT NAME: %
cytotoxicity at 10 µM: 6.51
//
MOLECULE: COC(=O)c1sc(NCc2ccc(N3CCC(O)CC3)c(F)c2)nc1Cl
UNIT NAME: %
cytotoxicity at 10 µM: 44.5
//
MOLECULE: O=C(O)c1cc(S(=O)(=O)Nc2cnn(C3CCOCC3)c2)ccc1F
UNIT NAME: %
cytotoxicity at 10 µM: -10.9

Returns the measured cytotoxicity at 10 µM for the input molecule. Input: COCCCC1CCCN(Cc2c(C)ccc3ncccc23)C1 (stereo not drawn)
-136

Requested field: cytotoxicity at 10 µM. Item: Cc1cnc(CN2CCCC(c3nc4ccccc4n3C(C)C)C2)o1 (stereo not drawn)
-8.14

Quick check: cytotoxicity at 10 µM of Cc1nnc(NCCn2nc(C)c(Cl)c2C)o1 ?
1.91

Given CC(C)(CNc1cccc(Cl)c1)NC(=O)C1CCCN(CC(N)=O)C1 (stereo not drawn) , state its recorded cytotoxicity at 10 µM.
-1.46

Suppose we examine the molecule COC(=O)c1ccc(C2CC(=O)Nc3c2cnn3C)cc1 (stereo not drawn) ; what cytotoxicity at 10 µM value has been reported?
-2.56

Name the recorded cytotoxicity at 10 µM for Cn1cc(S(=O)(=O)NCC(C)(O)c2ccsc2)cn1 (stereo not drawn) .
22.1

Entry Cn1ccnc1CN1CCN(Cc2noc(C3CC3)n2)CC1 has what cytotoxicity at 10 µM?
-1.85

Query: cytotoxicity at 10 µM; subject: CC(c1cc(F)ccc1F)N(C)C(=O)NCc1ccnc(N(C)C)c1 (stereo not drawn)
-16.8

So what does the record say about cytotoxicity at 10 µM for COc1ccc(C2CC(=O)Nc3nc(N4CCOCC4)sc32)c(OC)c1 (stereo not drawn) ?
53.8

Requested read-out: cytotoxicity at 10 µM. Entry: COc1ccccc1CN1CC(O)CN(C(=O)OCC(C)C)CC1=O (stereo not drawn)
-6.19

Entry NC(=O)C1(c2cnccn2)CCCN1Cc1ccccn1 (stereo not drawn) has what cytotoxicity at 10 µM?
-6.36

Returns the measured cytotoxicity at 10 µM for the input molecule. Input: CC(C)c1nc(C2CCCN2C(=O)c2cnc[nH]2)no1 (stereo not drawn)
-6.49

What value of cytotoxicity at 10 µM has been recorded for this entry: CCC(=O)N1CCN(C)C(=O)C(Cc2ccccc2-c2cccs2)C1 (stereo not drawn)
4.89

I would be grateful if you could share the reported cytotoxicity at 10 µM for COc1cccc(-c2nc(CC(=O)NC3(C)CCS(=O)(=O)C3)cs2)c1 (stereo not drawn) .
19
